Recorded measurements of melting point, one per entry

>>> endpoint_value("CC1=NN(c2ccc(C)c(C)c2)C(=O)C1=NNc1ccc(-c2cccc(C(=O)O)c2)cc1O")
"282 °C (dec.)"
>>> endpoint_value("CC1=NN(c2ccc(C)c(C)c2)C(=O)C1=NNc1ccc(-c2ccc(C(=O)O)cc2)cc1O (hydrate or solvate)")
"280 °C (dec.)"
>>> endpoint_value("Cc1ccc(N2N=C(Cl)C(=NNc3cccc(-c4cccc(C(=O)O)c4)c3O)C2=O)cc1C")
"210 °C (dec.)"

Please look up its melting point: CC1=NN(c2ccc(C(C)(C)C)cc2)C(=O)C1=NNc1cccc(-c2cccc(C(=O)O)c2)c1O (hydrate or solvate)
145 °C (dec.)
